Study system: PLCG2(SH2dom.N-term.) (Homo sapiens, UniProt P16885)
Construct: SH2dom.N-term. denotes SH2 domain closest to N-terminus of protein; made in house; host or cells: HEK293 (transient transfection, unpurified extract)
Sequence (P16885 532-635 limits assumed): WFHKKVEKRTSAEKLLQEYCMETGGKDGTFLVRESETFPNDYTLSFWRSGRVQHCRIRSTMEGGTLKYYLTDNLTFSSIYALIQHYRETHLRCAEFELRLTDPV
Experiment summary: biochemical
Format: binding
Reported conditions: primary screen, 10 μM; read-out: percent of DMSO vehicle control
# reported remaining activity at 10 µM; entries follow
Entry rule: numbers only, all in %.

Q: Form field: reported remaining activity at 10 µM of O=C(COc1ccc2cc(C(=O)Nc3ccccc3)ccc2c1)NCc1ccc(OP(=O)(O)O)c(OP(=O)(O)O)c1 [Stafib-1]
Result: 72.6

Q: Form field: reported remaining activity at 10 µM of C/C(=C\C(=O)N[C@H](C(=O)N1CCC[C@H]1C(=O)N(c1ccccc1)c1ccc(I)cc1)C(C)(C)C)c1ccc(OP(=O)(O)O)cc1 [STAT6-IN-1]
Result: 20.7

Continuing:
Q: Form field: reported remaining activity at 10 µM of O=C(CCl)Nc1cccc(CNC(=O)[C@H](Cc2ccc(OP(=O)(O)O)cc2)NC(=O)Cc2ccc(F)cc2)c1 [MN551]
Result: 109

Q: Form field: reported remaining activity at 10 µM of CC(C)(C)[C@H](NC(=O)/C=C/c1ccc(OP(=O)(O)O)cc1)C(=O)N1CCC[C@H]1C(=O)N(c1ccccc1)c1ccc(I)cc1 [STAT6-IN-3]
Result: 51.6
